- System: BT-549
- procedure.text: CCK-8 tumor cell proliferation, BT-549
- Type: cell-based
- study.conditions: Homo sapiens, BT-549 cells, 72 hours
# reported log10(IC50); entries follow
Hello, just confirming the data are log10 of IC50 with units of µM.

Exercise: Enter reported log10(IC50) observed with BT-549 for COc1cc(N2CC3(CN(C(=O)CC45CC6CC(CC(C6)C4)C5)C3)C2)ccc1Nc1ncc2c(C)cc(=O)n(-c3cccc(NC(=O)C4CC4)c3)c2n1
Solution: -0.03

Exercise: Enter reported log10(IC50) observed with BT-549 for COc1nc(N2CCN(C(=O)C34CC5CC(CC(C5)C3)C4)CC2)ccc1Nc1ncc2c(C)cc(=O)n(-c3cccc(NC(=O)C4CC4)c3)c2n1
Solution: 0.48

Exercise: Enter reported log10(IC50) observed with BT-549 for COc1cc(N2CCC(C(=O)NCC34CC5CC(CC(C5)C3)C4)CC2)ccc1Nc1ncc2c(C)cc(=O)n(-c3cccc(NC(=O)C4CC4)c3)c2n1
Solution: -1.57

Exercise: Enter reported log10(IC50) observed with BT-549 for COc1nc(N2CCN(C(=O)CC34CC5CC(CC(C5)C3)C4)CC2)ccc1Nc1ncc2c(C)cc(=O)n(-c3cccc(NC(=O)C4CC4)c3)c2n1
Solution: -0.42

Exercise: Enter reported log10(IC50) observed with BT-549 for COc1cc(N2CCN(C(=O)CC34CC5CC(CC(C5)C3)C4)CC2)ncc1Nc1ncc2c(C)cc(=O)n(-c3cccc(NC(=O)C4CC4)c3)c2n1
Solution: 0.01

Exercise: Enter reported log10(IC50) observed with BT-549 for COc1cc(N2CCN(CCNC(=O)CC34CC5CC(CC(C5)C3)C4)CC2)ccc1Nc1ncc2c(C)cc(=O)n(-c3cccc(NC(=O)C4CC4)c3)c2n1
Solution: -0.19

###

- System: PC-9
- procedure.text: CCK-8 tumor cell proliferation, PC-9
- Format: cell-based
- study.conditions: Homo sapiens, PC-9 cells, 72 hours
The label t is reserved for IC50 strictly under 0.05 µM; f covers values equal to or above it.

[[record]]
compound = "C=CC(=O)Nc1cccc(-n2c(=O)cc(C)c3cnc(Nc4ccc(N5CCN(CCCCCCCCCCCCNC(=O)CC67CC8CC(CC(C8)C6)C7)CC5)cc4OC)nc32)c1 [ZX-HYT-05]"
class_label = "t"


Exercise: Could you please tell me whether IC50 recorded for CCC(=O)Nc1cccc(-n2c(=O)cc(C)c3cnc(Nc4ccc(N5CCN(CCCCCCCCCCCCNC(=O)CC67CC8CC(CC(C8)C6)C7)CC5)cc4OC)nc32)c1 [ZX-HYT-08] is less than 0.05 µM?
Solution: f

Exercise: Could you please tell me whether IC50 recorded for COc1cc(N2CCN(CCCCCCCCCCCCNC(=O)CC34CC5CC(CC(C5)C3)C4)CC2)ccc1Nc1ncc2c(C)cc(=O)n([C@H]3CC[C@@H](NC(=O)C4CC4)C3)c2n1 [ZX-HYT-20] is less than 0.05 µM?
Solution: f

Exercise: Could you please tell me whether IC50 recorded for COc1cc(N2CCN(CCCCCCCCCCCCNC(=O)CC34CC5CC(CC(C5)C3)C4)CC2)ccc1Nc1ncc2c(C)cc(=O)n(-c3cccc(NC(=O)C(C)C)c3)c2n1 [ZX-HYT-10] is less than 0.05 µM?
Solution: f

Exercise: Could you please tell me whether IC50 recorded for COc1cc(N2CCN(CCCCCCCCCCCCNC(=O)CC34CC5CC(CC(C5)C3)C4)CC2)ccc1Nc1ncc2c(C)cc(=O)n(-c3cccc(NC(=O)C(C)(C)C)c3)c2n1 [ZX-HYT-12] is less than 0.05 µM?
Solution: f

Exercise: Could you please tell me whether IC50 recorded for C=CC(=O)Nc1cccc(-n2c(=O)cc(C)c3cnc(Nc4ccc(N5CCN(CCCCCCCCNC(=O)CC67CC8CC(CC(C8)C6)C7)CC5)cc4OC)nc32)c1 [ZX-HYT-03] is less than 0.05 µM?
Solution: f

The origin of these recorded values is patent US20240132492A1.
